- TESTED ON: MMP-13 catalytic domain (MMP-13CD) (Homo sapiens)
MEASUREMENT TYPE: IC50

Exercise: Looking for the measured IC50 of Cc1cc(-c2nnn(CC(=O)NCC(=O)O)n2)cc(C(=O)NCc2ccc(F)cc2)n1 [Example 1] , can you help?
Solution: 41 nM

* * *

- TESTED ON: MMP-9 full-length (Homo sapiens, UniProt P14780)
- Sequence (P14780 94-707, species assumed): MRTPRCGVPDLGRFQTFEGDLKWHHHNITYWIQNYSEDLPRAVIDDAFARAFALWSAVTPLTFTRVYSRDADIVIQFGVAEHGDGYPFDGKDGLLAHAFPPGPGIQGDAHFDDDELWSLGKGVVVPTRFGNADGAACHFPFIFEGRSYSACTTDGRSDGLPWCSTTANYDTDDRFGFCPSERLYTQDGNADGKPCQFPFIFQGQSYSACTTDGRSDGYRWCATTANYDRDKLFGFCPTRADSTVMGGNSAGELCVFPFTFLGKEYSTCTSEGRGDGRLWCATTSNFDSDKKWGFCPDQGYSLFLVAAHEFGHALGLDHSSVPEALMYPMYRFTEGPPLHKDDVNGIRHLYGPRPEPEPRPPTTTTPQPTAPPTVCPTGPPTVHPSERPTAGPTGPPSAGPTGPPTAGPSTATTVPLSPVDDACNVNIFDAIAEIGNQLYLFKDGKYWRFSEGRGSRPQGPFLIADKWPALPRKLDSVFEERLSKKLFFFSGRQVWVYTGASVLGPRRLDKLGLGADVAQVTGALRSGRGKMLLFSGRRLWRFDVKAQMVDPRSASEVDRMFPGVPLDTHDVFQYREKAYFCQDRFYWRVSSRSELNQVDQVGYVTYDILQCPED
MEASUREMENT TYPE: IC50

Exercise: Request the reported IC50 associated with Cc1cc(-c2nnn(CC(=O)NCC(=O)O)n2)cc(C(=O)NCc2ccc(F)cc2)n1
Solution: > 100 µM
